Hey, just so you know, these numbers are from PubChem BioAssay AID1645870.

test_system: N-terminal Xaa-Pro-Lys N-methyltransferase 1 (Homo sapiens) (UniProt Q9BV86)
Sequence (Q9BV86 whole entry, looked up): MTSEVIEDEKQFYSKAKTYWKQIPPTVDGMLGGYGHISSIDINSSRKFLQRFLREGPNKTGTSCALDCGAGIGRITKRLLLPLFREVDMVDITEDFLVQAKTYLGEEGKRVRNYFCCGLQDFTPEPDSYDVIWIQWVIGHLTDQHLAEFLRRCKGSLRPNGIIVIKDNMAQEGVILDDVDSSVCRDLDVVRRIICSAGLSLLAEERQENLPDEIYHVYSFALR
assay: Primary qHTS for Inhibitors of N-terminal methyltransferase 1 (NTMT1): MTaseGlo Assay; also: nearly all actives have a fitted effect of over 65% in size
run_conditions: NTMT1 MTase-Glo SAH luminescence, purified enzyme; series mostly up to 114 µM
The campaign covered roughly 59,000 compounds. About 1,500 (2.5%) were called active. About 10% were inconclusive and are not listed. Calls follow the shape of the dose curve; as a rule, active = well fitted inhibition curve with a large enough effect; inconclusive = small, poorly fitted or top-dose-only effect; inactive = flat fitted curve, though single readings scatter. The full list was thinned out, with actives kept by preference.
Your answer must be one of the following: 1.0 (active), 0.0 (inactive)

Example entries and their recorded answers appear below.
compound: O=C(Nc1ccc(S(=O)(=O)Nc2nccs2)cc1)C1CC(OCc2ccccc2)C1 (centres undefined)
assigned_category: 0.0
//
compound: O=C1COc2cc([S+](=O)([O-])Nc3ccc(Cl)c(Cl)c3)c(Cl)cc2N1
assigned_category: 0.0

Q: Hey, what did the test say about Cc1ccc(-c2ccc(=O)n(CCNC(C)c3ccco3)n2)cc1 (centres undefined) ?
Ans: 0.0

Q: What about this compound? OC1CCC(Nc2nc(-c3ccccc3)nc3[nH]ccc23)CC1 (centres undefined)
Ans: 0.0

Q: What about this compound? Oc1ccccc1-c1nc2ccc(Cl)cn2c1Nc1ccc2c(c1)OCCO2
Ans: 0.0

Q: What about this compound? CCC(C(=O)Nc1cccc(Cl)c1C)n1nc(-c2ccc(C)cc2)ccc1=O (centres undefined)
Ans: 1.0

Q: What about this compound? O=C(Nc1ccccn1)c1sc2ccc([N+](=O)[O-])cc2c1Cl
Ans: 0.0

Q: What about this compound? NC(=O)c1cnc2[nH]ccc2c1NC1C2CC3C[C@H]1CC(O)(C3)C2 (some centres undefined)
Ans: 0.0

Q: What about this compound? CCn1c(=O)c2cc(C(=O)NCCc3ccc(Cl)cc3)sc2c2ccccc21
Ans: 0.0

====

test_system: N-terminal Xaa-Pro-Lys N-methyltransferase 1 (Homo sapiens) (UniProt Q9BV86)
assay: Primary qHTS for Inhibitors of N-terminal methyltransferase 1 (NTMT1): MTaseGlo Assay; also: nearly all actives have a fitted effect of over 65% in size
run_conditions: NTMT1 MTase-Glo SAH luminescence, purified enzyme; series mostly up to 114 µM
Hit rate of the full screen: of about 59,000 compounds, about 1,500 (2.5%) were called active. Inconclusive results (about 10%) are left out. Calls follow the shape of the dose curve; as a rule, active = well fitted inhibition curve with a large enough effect; inconclusive = small, poorly fitted or top-dose-only effect; inactive = flat fitted curve, though single readings scatter. The list comes from a sample in which actives are over-represented; it also holds close analogues and randomly drawn compounds.
Your answer must be one of the following: 1 for active, 0 for inactive

Example entries and their recorded answers appear below.
compound: O=C(CSc1ncc(CO)n1Cc1ccc(Cl)cc1)NCc1ccc(F)cc1
assigned_category: 0

compound: CN(C)c1ccc(C(=O)NCC(=O)OC(C(=O)Nc2cc(C(F)(F)F)ccc2Cl)c2ccccc2)cc1 (stereo not given)
assigned_category: 0

compound: CCCn1c(C)nc2c(NCCCCN(CC)CC)nc(C)nc21
assigned_category: 0

compound: CCc1ccc(-c2nn3c(C)nnc3s2)cc1NC(=O)c1ccc(-c2cccc(Cl)c2)o1
assigned_category: 0

compound: COc1ccc(C2=Nn3c(nnc3-c3ccccc3F)SC2)cc1OC
assigned_category: 0

Q: Hey, what did the test say about O=C(CSc1ncc(CO)n1Cc1ccc(F)cc1)NCc1ccco1 ?
Ans: 0

Q: What about this compound? Cc1c(Cl)cccc1S(=O)(=O)Nc1nc(CCN2CCOCC2=O)cs1
Ans: 0

Q: What about this compound? CNc1oc(-c2ccc(-c3ccccc3)cc2)nc1C#N
Ans: 0

====

test_system: N-terminal Xaa-Pro-Lys N-methyltransferase 1 (Homo sapiens)
assay: Primary qHTS for Inhibitors of N-terminal methyltransferase 1 (NTMT1): MTaseGlo Assay; also: nearly all actives have a fitted effect of over 65% in size
run_conditions: NTMT1 MTase-Glo SAH luminescence, purified enzyme; series mostly up to 114 µM
Out of some 59,000 compounds screened, about 1,500 (2.5%) were called active. Another 10% or so got no clear call; they are omitted. The call rests on the fitted dose curve; in most records, active means well fitted inhibition curve with a large enough effect; inconclusive means small, poorly fitted or top-dose-only effect; inactive means flat fitted curve, though single readings scatter. This excerpt belongs to a sample that is enriched for actives.
Your answer must be one of the following: active, inactive

Example entries and their recorded answers appear below.
compound: COc1cccc(OC2=NS(=O)(=O)c3ccccc32)c1
assigned_category: inactive
//
compound: COc1ccc(C2Nc3ccccc3C(=O)N2Cc2cccc(OC)c2OC)cc1COc1c(C)cc(NC(C)=O)cc1C (configuration not stated)
assigned_category: inactive
//
compound: N#CN1CCC(NC(=O)c2ccc(F)cc2)CC1
assigned_category: inactive
//
compound: c1nc(N2CCOCC2)c2cc(-c3ccc4c(c3)OCO4)ccc2n1
assigned_category: active
//
compound: COc1cccc(C(=O)Nc2ccc3oc(-c4ccc5ccccc5c4)nc3c2)c1
assigned_category: inactive
//
compound: COC(=O)c1cccc(Cn2nnc3sc4c(c3c2=O)CCC(C(C)(C)C)C4)c1 (configuration not stated)
assigned_category: inactive

Q: Hey, what did the test say about Nc1ncnc2c1c(I)cn2[C@@H]1C[C@H](N)[C@@H](O)[C@H]1O ?
Ans: active

Q: What about this compound? CC[C@H](Nc1ncnc2nc[nH]c12)c1oc2ccccc2c(=O)c1-c1cccc(F)c1
Ans: inactive

Q: What about this compound? NC(=O)C1CCN(c2ncc(-c3ccc(Cl)cc3)s2)CC1
Ans: inactive

Q: What about this compound? Cc1cc(-c2nnc3n2CCCCC3)c(C)n1-c1ccc(C(F)(F)F)cc1
Ans: inactive

Q: What about this compound? COc1ccc(C2Nc3ccccc3C(=O)N2Cc2cccs2)cc1COc1c(C)cccc1C (configuration not stated)
Ans: inactive

Q: What about this compound? CNc1oc(-c2cccc(Cl)c2Cl)nc1C#N
Ans: inactive
